- MEASURED ON: T1, human IL-13 variant (R130Q) (human, UniProt P35225 35-146)
- T1 construct: called R110Q in the assay descriptions (mature numbering); also called h IL-13v; hIL-13v
- ASSAY EXPLANATION: SPR (Biacore), mAb captured, IL-13 as analyte
- Method: The BIACORE assay (Biacore, Inc, Piscataway, N.J.) determines the affinity of antibodies with kinetic measurements of on-, off-rate constants. […] The association and dissociation rate constants, kₒₙ (unit M⁻¹s⁻¹) and koff (unit s⁻¹) were determined under a continuous flow rate of 25 μl/min Rate constants were derived by making kinetic binding measurements at ten different antigen concentrations ranging from 10-200 nM. […]
MEASURED ATTRIBUTE: koff (s⁻¹)
Entry rule: numbers only, all in s⁻¹.

| BINDER | RESULT UNIT | OBSERVED VALUE |
| --- | --- | --- |
| 1B6 (antibody, V domains shown) VH: QVQLKESGPGLVAPSQSLSITCTVSGFSLTGYGVNWVRQPPGKGLEWLGMIWGDERIDYNSALKSRLSITKDNSKSQVFLKMNSLQTDDTGRYFCARDGYFPYAMDYWGQGTSVTVSS VL: NIVLTQSPASLAVSLGQRATISCRASETVDSYGKSYLHWYQQKPGQPPKLLIYLASNLESGVPARFSGSGSRTDFTLIIDPVEADDAATYYCQQNNEGPRTFGGGTKLEIKR | s⁻¹ | 0.000222 |

Request: Can you look up the measured koff of 21D9 (antibody, V domains shown) VH: QVQLQQSGDDLVKPGASVKLSCKASGYTFTSYWINWIKQRPGQGLEWIGHIAPGSGETYDNEMFKDKAKLTVDTSSNTAYIHLSSLSSEDSAVYFCARGSFTFFYAMDYWGQGTSVTVSS VL: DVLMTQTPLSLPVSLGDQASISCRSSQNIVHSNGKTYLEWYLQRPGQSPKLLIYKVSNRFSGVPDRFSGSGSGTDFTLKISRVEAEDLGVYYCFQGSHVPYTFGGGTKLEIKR for me?
Result: 6.18e-05

Request: Could you share which koff value was measured for 3E5 (antibody, V domains shown) VH: QVQLKESGPGLVAPSQSLSITCTVSGFSLTGSSINWVRQPPGKGLEWLGMIWGDGRIDYNSVLKSRLSISKDSSKSQVFLKMNSLQADDTARYYCARDGYYPYAMVYWGQGTSVTVSS VL: NIVLTQSPASLAVSLGQRATIFCRASESVDSYGNSFMHWYQQKSGQPPKLLIYLASNLESGVPARFSGSGSRTDFTLTIDPVEADDAATFYCQQNNENPRTFGGGTKLEIKR ?
Result: 0.000468
